# credit: patent US20240199605A1

Target: recombinant human NF-kappaB-inducing kinase (NIK/MAP3K14) (Homo sapiens (Human), UniProt Q99558)
Sequence (Q99558 whole entry): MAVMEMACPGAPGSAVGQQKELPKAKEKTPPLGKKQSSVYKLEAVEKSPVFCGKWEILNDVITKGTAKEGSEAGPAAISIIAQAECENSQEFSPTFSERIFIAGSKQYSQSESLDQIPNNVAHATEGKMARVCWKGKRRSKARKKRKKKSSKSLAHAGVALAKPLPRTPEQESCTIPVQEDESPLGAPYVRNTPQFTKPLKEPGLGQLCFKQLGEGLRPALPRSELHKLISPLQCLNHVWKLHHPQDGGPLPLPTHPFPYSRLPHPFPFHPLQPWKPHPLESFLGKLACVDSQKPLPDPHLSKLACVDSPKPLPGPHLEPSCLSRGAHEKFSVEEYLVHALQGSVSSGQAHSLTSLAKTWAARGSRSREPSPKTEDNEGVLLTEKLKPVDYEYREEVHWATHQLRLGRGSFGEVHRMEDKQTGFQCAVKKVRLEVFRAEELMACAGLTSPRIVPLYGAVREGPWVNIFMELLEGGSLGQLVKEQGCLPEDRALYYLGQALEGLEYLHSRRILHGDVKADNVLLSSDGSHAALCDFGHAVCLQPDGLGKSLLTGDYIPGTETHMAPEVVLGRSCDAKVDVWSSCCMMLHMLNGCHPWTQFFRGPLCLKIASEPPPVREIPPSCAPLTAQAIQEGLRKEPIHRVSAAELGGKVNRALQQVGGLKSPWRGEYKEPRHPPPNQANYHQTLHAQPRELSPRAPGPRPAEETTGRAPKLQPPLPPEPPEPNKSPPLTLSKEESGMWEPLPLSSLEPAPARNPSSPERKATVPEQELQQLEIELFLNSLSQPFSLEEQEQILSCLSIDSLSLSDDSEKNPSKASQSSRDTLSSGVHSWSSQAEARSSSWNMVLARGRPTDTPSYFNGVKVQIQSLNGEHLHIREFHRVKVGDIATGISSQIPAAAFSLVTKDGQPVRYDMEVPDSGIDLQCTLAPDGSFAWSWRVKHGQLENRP
Experiment: Inhibition of auto-phosphorylation of recombinant human NIK/MAP3K14 (AlphaScreen)
Settings: NIK auto-phosphorylation, 5 μM ATP, 1 nM NIK, 2 h at 25° C.; average of values
PARAMETER: IC50 (nM)

In [3]: df
Out[3]:
                              record_smiles  measurement
0  CO[C@@]1(C#Cc2cccc(-c3ccc4ncnc(N)c4n3)c2)CCN(C)C1=O          180

[A] Cc1nnc([C@](C)(O)C#Cc2cccc(-c3ccc4ccnc(N)c4n3)c2)o1
[B] CN1CC[C@@](O)(C#Cc2cccc(-c3ccc4nc(CO)nc(N)c4n3)c2)C1=O
Exam item: Return label of the item with the larger IC50. Candidates: A , B . Give the label under which the chosen entry appears.
Marked response: B
(B: 12 nM, A: 4.7 nM)

[A] Cc1ccc(-c2nc3c(N)ncnc3s2)cc1C#C[C@]1(O)CCN(C)C1=O
[B] Cc1nc(N)c2nc(-c3cccc(C#C[C@](C)(O)c4cnccn4)c3)ccc2n1
Exam item: Return label of the item with the larger IC50. Candidates: A , B . Give the label under which the chosen entry appears.
Marked response: B
